Could you please report measured herbicidal rating, ORYSAT (rice tolerance) for the items listed next?
Tested on: ORYSAT (Rice, Tebonnet)
protocol-summary: Flooded paddy, post-transplant rice tolerance
Assay type: in vivo, Oryza sativa, (L.) Tebonnet
run-conditions: flooded paddy, post-transplant rice; rate 0.1250 kg/ha; rated 3-4 weeks after treatment; 0-9 rating scale
In your answer, state the number alone without any accompanying words.

Problem: Which herbicidal rating, ORYSAT (rice tolerance) is listed for Cn1c(C(F)(F)F)cc(=O)n(-c2ccc3snc(C4OC(C)(C)C(C)(C)O4)c3c2)c1=O ?
Result: 8.0

Problem: // same read-out, input: Cc1cc(C)nc(-c2nsc3ccc(-n4c(=O)cc(C(F)(F)F)n(C)c4=O)cc23)n1
Result: 7.0

Problem: // same read-out, input: Cn1c(C(F)(F)F)cc(=O)n(-c2ccc3snc(C4OCC5(CO4)CO5)c3c2)c1=O (centres unmarked)
Result: 0.0

Problem: // same read-out, input: Cn1c(C(F)(F)F)cc(=O)n(-c2ccc3snc(-c4nccs4)c3c2)c1=O
Result: 5.0

Problem: // same read-out, input: C[C@@H]1C[C@H](C)OC(c2nsc3cc(F)c(-n4c(=O)cc(C(F)(F)F)n(C)c4=O)cc23)O1 (some centres unmarked)
Result: 9.0

Problem: // same read-out, input: Cc1ccc(-c2nsc3ccc(-n4c(=O)cc(C(F)(F)F)n(C)c4=O)cc23)s1
Result: 3.0

Problem: // same read-out, input: C[C@@H]1O[C@@H]1c1nsc2ccc(-n3c(=O)cc(C(F)(F)F)n(C)c3=O)cc12
Result: 7.5

Problem: // same read-out, input: Cc1cccnc1-c1nsc2cc(F)c(-n3c(=O)cc(C(F)(F)F)n(C)c3=O)cc12
Result: 7.5
